study_target: human CD33 R69G (human) (UniProt P20138)
Sequence (P20138 18-259 R69G): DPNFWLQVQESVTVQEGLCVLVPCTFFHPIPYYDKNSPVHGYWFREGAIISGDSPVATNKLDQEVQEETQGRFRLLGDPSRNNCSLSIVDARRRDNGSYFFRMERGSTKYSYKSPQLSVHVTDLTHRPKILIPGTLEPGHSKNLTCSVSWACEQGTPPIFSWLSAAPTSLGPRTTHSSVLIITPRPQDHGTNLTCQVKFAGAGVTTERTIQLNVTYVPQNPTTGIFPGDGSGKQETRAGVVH
procedure_details: SPR, Fab captured, 37C
measurement_kind: Kd (nM)

binder	measurement_kind	value_reported
ADI-11776 Fab (Fab, V domains shown) VH: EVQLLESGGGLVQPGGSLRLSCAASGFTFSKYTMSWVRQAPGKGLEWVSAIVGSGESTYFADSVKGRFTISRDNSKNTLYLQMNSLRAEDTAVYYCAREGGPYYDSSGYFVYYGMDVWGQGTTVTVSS VL: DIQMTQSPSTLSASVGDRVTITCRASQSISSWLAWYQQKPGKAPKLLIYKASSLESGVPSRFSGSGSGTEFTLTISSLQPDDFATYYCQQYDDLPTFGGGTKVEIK	Kd	0.22
